Data credit: paper PMC7825511

experiment: Linker half-life determination by spectrophotometric proton release assay (spontaneous hydrolysis); format: physicochemical; conditions: buffer; 37 °C, pH 7.4; low molecular weight 90CE prodrugs with different N-2 substituents; read-out: Half-life (h) 37°C pH 7.4 (spontaneous hydrolysis) (converted)
Measurement Label: half-life

q: Entry under review: `CS(=O)(=O)N(CCCl)N(C(=O)N1CCCCC1)S(C)(=O)=O` . Reported half-life?
a: 16.2 h

q: Next record, please: `CNC(=O)N(N(CCCl)S(C)(=O)=O)S(C)(=O)=O`
a: 1.17 h

q: Next record, please: CC1CCC(C)N1C(=O)N(N(CCCl)S(C)(=O)=O)S(C)(=O)=O (stereo not drawn)
a: > 300 h

q: Next record, please: `CC(=O)N(N(CCCl)S(C)(=O)=O)S(C)(=O)=O`
a: 42.9 h

q: Next record, please: `COC(=O)N(N(CCCl)S(C)(=O)=O)S(C)(=O)=O`
a: > 300 h

q: Next record, please: `CCN(CC)C(=O)N(N(CCCl)S(C)(=O)=O)S(C)(=O)=O`
a: 10.3 h

q: Next record, please: `CS(=O)(=O)N(CCCl)N(C(=O)N1CCOCC1)S(C)(=O)=O`
a: > 300 h

q: Next record, please: `CS(=O)(=O)N(CCCl)N(C(=O)N1CCCC1)S(C)(=O)=O`
a: > 300 h

q: Next record, please: `CN(C)C(=O)N(N(CCCl)S(C)(=O)=O)S(C)(=O)=O`
a: 129 h
